# credit: ChEMBL document CHEMBL2396576

target_of_assay: Serine/threonine-protein kinase pim-2 (Homo sapiens) (UniProt Q9P1W9)
Sequence (Q9P1W9 whole entry, looked up): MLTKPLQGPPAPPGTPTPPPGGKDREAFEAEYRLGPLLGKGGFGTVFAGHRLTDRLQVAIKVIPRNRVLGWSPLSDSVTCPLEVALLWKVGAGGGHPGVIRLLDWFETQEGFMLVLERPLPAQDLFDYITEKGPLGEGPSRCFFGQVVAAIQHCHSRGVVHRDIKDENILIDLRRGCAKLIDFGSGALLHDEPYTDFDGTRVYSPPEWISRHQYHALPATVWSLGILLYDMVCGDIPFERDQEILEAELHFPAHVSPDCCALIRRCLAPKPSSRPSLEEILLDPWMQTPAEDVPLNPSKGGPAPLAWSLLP
assay_protocol: Inhibition of human PIM2 assessed as residual activity using RSRHSSYPAGT as substrate at 10 uM after 30 mins
Please go through the items and note down their Activity.
Answers are plain numbers, in %.

The examples below pair each entry with its known result.
> print(dat)
                                chem.smiles                           target.of.assay  parameter.measured  result.value
1  COc1ccc2[nH]c3c([N+](=O)[O-])cc4cn[nH]c4c3c2c1  Serine/threonine-protein kinase pim-2 (Homo sapiens) (UniProt Q9P1W9)            Activity            72
2  O=[N+]([O-])c1cc2cn[nH]c2c2c1[nH]c1ccccc12  Serine/threonine-protein kinase pim-2 (Homo sapiens) (UniProt Q9P1W9)            Activity            46
3  COc1ccc2[nH]c3c([N+](=O)[O-])cc4[nH]ncc4c3c2c1  Serine/threonine-protein kinase pim-2 (Homo sapiens) (UniProt Q9P1W9)            Activity            35
4  O=[N+]([O-])c1cc2[nH]ncc2c2c1[nH]c1ccc(Cl)cc12  Serine/threonine-protein kinase pim-2 (Homo sapiens) (UniProt Q9P1W9)            Activity            54

Note: attention shifts to another entry.
Request - read-out Activity | tested on Serine/threonine-protein kinase pim-2 (Homo sapiens) (UniProt Q9P1W9) | compound O=[N+]([O-])c1cc2cn[nH]c2c2c1[nH]c1ccc(Cl)cc12
93

---

So I've got a bunch of compounds here, and I need their Activity values.
target_of_assay: Serine/threonine-protein kinase pim-3 (Homo sapiens)
assay_protocol: Inhibition of human PIM3 assessed as residual activity using RSRHSSYPAGT as substrate at 10 uM after 30 mins
Answers are plain numbers, in %.

// below: answered compounds
> print(dat)
                                chem.smiles                           target.of.assay  parameter.measured  result.value
1       COc1ccc2[nH]c3c(N)cc4[nH]ncc4c3c2c1  Serine/threonine-protein kinase pim-3 (Homo sapiens)            Activity            16
2  O=[N+]([O-])c1cc2cn[nH]c2c2c1[nH]c1ccc(Cl)cc12  Serine/threonine-protein kinase pim-3 (Homo sapiens)            Activity            38
3       Nc1cc2[nH]ncc2c2c1[nH]c1ccc(Cl)cc12  Serine/threonine-protein kinase pim-3 (Homo sapiens)            Activity             7
4  COc1ccc2[nH]c3c([N+](=O)[O-])cc4[nH]ncc4c3c2c1  Serine/threonine-protein kinase pim-3 (Homo sapiens)            Activity            11
5       Nc1cc2cn[nH]c2c2c1[nH]c1ccc(Cl)cc12  Serine/threonine-protein kinase pim-3 (Homo sapiens)            Activity            14

Below are 4 compounds. Give each one its Activity.
1. O=[N+]([O-])c1cc2[nH]ncc2c2c1[nH]c1ccc(Cl)cc12
2. COc1ccc2[nH]c3c([N+](=O)[O-])cc4cn[nH]c4c3c2c1
3. O=[N+]([O-])c1cc2cn[nH]c2c2c1[nH]c1ccccc12
4. Nc1cc2cn[nH]c2c2c1[nH]c1ccccc12

19
23
16
20

For every item below, please supply its Activity.
1. Nc1cc2[nH]ncc2c2c1[nH]c1ccccc12
2. COc1ccc2[nH]c3c(N)cc4cn[nH]c4c3c2c1
3. O=[N+]([O-])c1cc2[nH]ncc2c2c1[nH]c1ccccc12

[20, 14, 17]
